- Tested on: PPARa:RXRa (NR concentration 270 nM, RXRa partner concentration 90 nM)
- Test: PBM binding z-score (relative to random genomic background probes); higher = stronger binding; sequences stand for … in GC…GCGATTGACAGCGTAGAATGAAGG
Returns one of MET or NOT MET; MET when PBM binding z-score is >= 2.

[Q] Decide: PBM binding z-score of TCTGCTACGTCAACGATGGTCAGCTAATCTGCTA >= 2?
[A] NOT MET

[Q] Now consider AGAACGAGGGCACGCTGACTTGATAGCAGAGTAG and answer again.
[A] MET

[Q] Now consider TCATATAGGTAAACGGGTGAAAGTCCGTAAGTTA and answer again.
[A] MET

[Q] Now consider TCGAGTAGGTTAACAATGGGGCATTCAGCTTTCT and answer again.
[A] NOT MET

[Q] Now consider GGAACGAGGCCAAGTTGATAGCAGAGTTTGATGG and answer again.
[A] NOT MET

[Q] Now consider TCTTGTAGATCAATACAGGTTAAGAAAGTGCGCT and answer again.
[A] NOT MET

Hello, the source for this data is the supplement of paper PMC6555819, in case you need it.
